Recorded Human M4 Emin for the following compounds
# system.tested: human mAChR M4 (Homo sapiens)
# Construct: expressed in transfected cells; host or cells: CHO-K1 (ATCC), stably co-expressing chimeric G protein Gqi5
# Sequence (P08173 1-479): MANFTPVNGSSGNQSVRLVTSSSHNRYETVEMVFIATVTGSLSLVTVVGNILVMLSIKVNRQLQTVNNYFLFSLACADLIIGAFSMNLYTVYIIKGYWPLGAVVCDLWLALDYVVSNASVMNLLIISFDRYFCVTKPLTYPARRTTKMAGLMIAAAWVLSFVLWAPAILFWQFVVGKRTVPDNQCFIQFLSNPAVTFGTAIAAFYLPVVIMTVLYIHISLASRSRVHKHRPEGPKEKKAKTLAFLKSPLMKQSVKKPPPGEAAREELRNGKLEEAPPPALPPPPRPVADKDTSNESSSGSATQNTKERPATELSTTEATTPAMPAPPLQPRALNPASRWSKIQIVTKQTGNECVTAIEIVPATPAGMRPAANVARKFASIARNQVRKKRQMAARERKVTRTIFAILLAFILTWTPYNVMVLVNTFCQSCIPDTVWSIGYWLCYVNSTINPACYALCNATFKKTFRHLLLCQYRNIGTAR
# test.details: mAChR M4 cell-based functional assay (calcium mobilization, EC80 acetylcholine), human M4
# particulars: Table 10
Could you give me the number in %? Just the number is fine.

CC(=O)Nc1ccc(-c2ccc(O[C@H]3C[C@@H]4CN(CC5CCCCC5)C[C@@H]4C3)nn2)cc1
3
Cc1nn(C)cc1-c1ccc(N[C@H]2C[C@@H]3CN(CC45CC6CC(CC(C6)C4)C5)C[C@@H]3C2)nc1
3
Fc1ccc(Cl)c(-c2ccc(N[C@H]3C[C@@H]4CN(CC5CC5)C[C@@H]4C3)nn2)c1
3

Please give the measured Human M4 Emin for this compound: "CC(=O)Nc1ccc(-c2ccc(N[C@H]3C[C@@H]4CN(CCC(C)(C)C)C[C@@H]4C3)c(F)c2F)cc1"
4

Please give the measured Human M4 Emin for this compound: "Fc1ccc(CN2C[C@H]3C[C@H](Nc4ccc(-c5cc(F)ccc5Cl)nn4)C[C@H]3C2)cc1"
3

Please give the measured Human M4 Emin for this compound: "Cc1cnn(C)c1-c1ccc(O[C@H]2C[C@@H]3CN(CCC(C)(C)C)C[C@@H]3C2)nn1"
5

Please give the measured Human M4 Emin for this compound: "Clc1ccccc1-c1ccc(N[C@H]2C[C@@H]3CN(CC4CCOCC4)C[C@@H]3C2)nn1"
4

Please give the measured Human M4 Emin for this compound: "COc1ccc(F)cc1-c1ccc(N[C@H]2C[C@@H]3CN(CC4CCOCC4)C[C@@H]3C2)nn1"
5

Please give the measured Human M4 Emin for this compound: "c1nn(C2CC2)cc1-c1ccc(N[C@H]2C[C@@H]3CN(CC4CCOCC4)C[C@@H]3C2)nn1"
13

Please give the measured Human M4 Emin for this compound: "CC(C)(C)CCN1C[C@H]2C[C@H](Nc3ccc(N4CCOCC4)nn3)C[C@H]2C1"
6

Please give the measured Human M4 Emin for this compound: "Cc1noc(C)c1-c1ccc(N[C@H]2C[C@@H]3CN(CC4CCOCC4)C[C@@H]3C2)nn1"
26

Please give the measured Human M4 Emin for this compound: "FC(F)(F)c1ccc(-c2ccc(N[C@H]3C[C@@H]4CN(CC5CCOCC5)C[C@@H]4C3)nn2)cn1"
24

Please give the measured Human M4 Emin for this compound: "FC1(F)CCN(c2ccc(N[C@H]3C[C@@H]4CN(CC5CCOCC5)C[C@@H]4C3)nn2)C1"
8

Please give the measured Human M4 Emin for this compound: "c1cc(N2CCCC2)nnc1N[C@H]1C[C@@H]2CN(CC3CCOCC3)C[C@@H]2C1"
6

Please give the measured Human M4 Emin for this compound: "CC(C)(O)c1cccc(-c2ccc(N[C@H]3C[C@@H]4CN(CC5CCOCC5)C[C@@H]4C3)nn2)c1"
16

Please give the measured Human M4 Emin for this compound: "Fc1cccc(CN2C[C@H]3C[C@H](Nc4ccc(-c5cc(F)ccc5Cl)nn4)C[C@H]3C2)c1"
3

Please give the measured Human M4 Emin for this compound: "N#Cc1ccc(F)cc1-c1ccc(N[C@H]2C[C@@H]3CN(CC4CCOCC4)C[C@@H]3C2)nn1"
16

Please give the measured Human M4 Emin for this compound: "Fc1ccc(-c2ccc(N[C@H]3C[C@@H]4CN(CC5CCOCC5)C[C@@H]4C3)nn2)c(Cl)c1"
5

Please give the measured Human M4 Emin for this compound: Cc1nn(C)cc1-c1cnc(N[C@H]2C[C@@H]3CN(CC4CC5C=CC4C5)C[C@@H]3C2)cn1 (stereo partly shown)
4

Please give the measured Human M4 Emin for this compound: "c1cnc2ccc(-c3ccc(N[C@H]4C[C@@H]5CN(CC6CCOCC6)C[C@@H]5C4)nn3)cc2c1"
4

Please give the measured Human M4 Emin for this compound: "Fc1ccc(Cl)c(-c2ccc(N[C@H]3C[C@@H]4CN(Cc5cccnc5)C[C@@H]4C3)nn2)c1"
5

---

# system.tested: human mAChR M4 (Homo sapiens, UniProt P08173)
# Construct: expressed in transfected cells; host or cells: CHO-K1 (ATCC), stably co-expressing chimeric G protein Gqi5
# Sequence (P08173 1-479): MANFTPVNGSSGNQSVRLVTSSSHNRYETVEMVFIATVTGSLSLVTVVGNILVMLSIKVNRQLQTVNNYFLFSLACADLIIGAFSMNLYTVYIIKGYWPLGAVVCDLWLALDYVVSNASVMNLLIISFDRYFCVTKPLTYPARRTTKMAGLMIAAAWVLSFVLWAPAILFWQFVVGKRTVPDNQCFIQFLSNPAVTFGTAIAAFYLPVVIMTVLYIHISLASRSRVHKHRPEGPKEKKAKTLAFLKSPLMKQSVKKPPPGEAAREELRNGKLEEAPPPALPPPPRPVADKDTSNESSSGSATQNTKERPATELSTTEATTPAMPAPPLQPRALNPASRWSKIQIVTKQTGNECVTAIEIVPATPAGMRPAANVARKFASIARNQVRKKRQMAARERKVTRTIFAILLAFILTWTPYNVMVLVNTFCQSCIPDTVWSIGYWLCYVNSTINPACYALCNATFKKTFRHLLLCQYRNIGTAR
# test.details: mAChR M4 cell-based functional assay (calcium mobilization, EC80 acetylcholine), human M4
# particulars: Table 9; human M4; % ACh maximum at 30 μM
metric: Emin (%)
Could you give me the number in %? Just the number is fine.

These recorded examples may help you get a feel for the data.
Cc1nn(C)cc1-c1ccc(OCC2C[C@@H]3CN(CC4CCCCC4)C[C@@H]3C2)nn1 (stereo partly shown)
4.44
Cc1nn(C)cc1-c1ccc(N[C@H]2C[C@@H]3CN(Cc4ccccn4)C[C@@H]3C2)nn1
3.96
Cc1nn(C)cc1-c1ccc(OCC2C[C@@H]3CN(Cc4ccc5c(c4)OCO5)C[C@@H]3C2)nn1 (stereo partly shown)
5.63

// switching to the query compound
Short answer please: Emin, human mAChR M4 (Homo sapiens, UniProt P08173), entry Cc1cnn(C)c1-c1ccc(OCC2C[C@@H]3CN(Cc4ccccc4)C[C@@H]3C2)nn1 (stereo partly shown)
9.09

---

# system.tested: human mAChR M4 (Homo sapiens)
# Construct: expressed in transfected cells; host or cells: CHO-K1 (ATCC), stably co-expressing chimeric G protein Gqi5
# test.details: mAChR M4 cell-based functional assay (calcium mobilization, EC80 acetylcholine), human M4
# particulars: Table 9; M4/Gqi5/CHO-K1 cells, decrease of EC80 acetylcholine response
Recorded IC50 for the following compounds
Show the value, then the unit it is measured in.

These recorded examples may help you get a feel for the data.
Cc1nn(C)cc1-c1ccc(N[C@@H]2C[C@@H]3CN(CC45CC6CC(CC(C6)C4)C5)C[C@@H]3C2)c(F)c1F
6590 nM
Cc1cnn(C)c1-c1ccc(NC[C@H]2C[C@@H]3CN(CC4CCCOC4)C[C@@H]3C2)nn1 (stereo partly shown)
5310 nM
Cc1nn(C)cc1-c1ccc(OCC2C[C@@H]3CN(CC4CCOCC4)C[C@@H]3C2)nn1 (stereo partly shown)
2230 nM

Please give the measured IC50 for this compound: Fc1ccc(Cl)c(-c2ccc(O[C@@H]3C[C@@H]4CN(CC5CC6C=CC5C6)C[C@@H]4C3)nn2)c1 (stereo partly shown)
100 nM

Please give the measured IC50 for this compound: Cc1nn(C)cc1-c1ccc(N[C@@H]2C[C@@H]3CN(CC4CC5C=CC4C5)C[C@@H]3C2)c(F)c1F (stereo partly shown)
422 nM

Please give the measured IC50 for this compound: Cc1cnn(C)c1-c1ccc(N[C@H]2C[C@@H]3CN(CC4CCCOC4)C[C@@H]3C2)nn1 (stereo partly shown)
81.5 nM

Please give the measured IC50 for this compound: Cc1cccnc1CN1C[C@H]2CC(CCNc3ccc(-c4c(C)cnn4C)nn3)C[C@H]2C1 (stereo partly shown)
20.6 nM

---

# system.tested: human mAChR M4 (Homo sapiens)
# Construct: expressed in transfected cells; host or cells: CHO-K1 (ATCC), stably co-expressing chimeric G protein Gqi5
# test.details: mAChR M4 cell-based functional assay (calcium mobilization, EC80 acetylcholine), human M4
# particulars: Table 9; μM
Recorded IC50 for the following molecules

Fc1ccc(Cl)c(-c2ccc(O[C@@H]3C[C@@H]4CN(CC5CCOCC5)C[C@@H]4C3)nn2)c1
> 10 µM

Short answer please: IC50, human mAChR M4 (Homo sapiens), entry "Cc1cccnc1CN1C[C@H]2C[C@@H](Oc3ccc(-c4cn(C)nc4C)nn3)C[C@H]2C1"
> 10 µM
